system: S. aureus RN450; experiment: In vitro minimum inhibitory concentration (MIC) assay, S. aureus; assay type: cell-based; parameters: key: Compounds which showed superior inhibition of S. aureus, S. pseumoniae and E. coli are indicated by “***,”; compounds which showed very good or good inhibition of S. aureus, S. pseumoniae and E. coli are indicated by “**” or “*” respectively; compounds which showed very good or good inhibition of S. aureus, S. pseumoniae and E. coli are indicated by “**” or “*” respectively; conditions: broth microdilution in CAMHB, 35° C., approximately 18 hour
RECORDED_METRIC: Median MIC for S. aureus RN450

SMILES | MEASURED_ON | RESULT
CN(C)c1cc(-c2ccc(C(N)=O)cc2)c(O)c2c1C[C@H]1C[C@H]3[C@H](N(C)C)C(O)=C(C(N)=O)C(=O)[C@@]3(O)C(O)=C1C2=O | S. aureus RN450 | *
CN(C)c1cc(C(=O)C(=O)O)c(O)c2c1C[C@H]1C[C@H]3[C@H](N(C)C)C(O)=C(C(N)=O)C(=O)[C@@]3(O)C(O)=C1C2=O | S. aureus RN450 | **
CNC(=O)c1cc(N(C)C)c2c(c1O)C(=O)C1=C(O)[C@]3(O)C(=O)C(C(N)=O)=C(O)[C@@H](N(C)C)[C@@H]3C[C@@H]1C2 | S. aureus RN450 | *
